The entries below come with measured MIC values attached.
System: E. coli
Experiment: Gram negative MIC protocol (OD600, LB, 24 h)
Details: Escherichia coli, read-out: MIC WT E. coli LB Media, wild-type E. coli, LB media, 24 h, OD600
Structures can show the parent of a compound that is named as a salt.

Please review the entries below; each comes with its answer.
compound	measured_metric	result
c1ccc(CNCCC2CCSCC2)cc1 [B332]	MIC	> 150 µM
c1ccc(OCC2CCOCC2)c(CNCCC2CCCCC2)c1 [B331]	MIC	> 150 µM
c1ccc(CNCCN2CCCCC2)cc1 [B223]	MIC	> 300 µM
COCc1cccc(CNCCC2CCCCC2)c1 [B350]	MIC	> 150 µM
Fc1ccc2c(c1)[C@@H](NCc1ccccc1)CC2 [B208, hydrochloride]	MIC	> 300 µM
COc1ccc(CC(C)NCc2ccccc2)c2ccccc12 (stereo not drawn) [B201]	MIC	> 300 µM
Cl.c1ccc(CNCC2CCCc3ccccc32)cc1 (stereo not drawn) [B214, hydrochloride]	MIC	> 300 µM
CC(CC1CCCCC1)NCc1ccccc1OCC(=O)NCC1CCCO1 (stereo not drawn) [B336]	MIC	> 150 µM
O=C1CCC(CCNCc2ccccc2)CC1 [B218, 4-(2-(benzylamino)ethyl) cyclohexanone]	MIC	> 300 µM
OCc1cccc(CNCCC2CCCCC2)c1 [B375]	MIC	> 150 µM

Given the entry CCOC(=O)COCCOc1ccccc1CNC(C)CC1CCCCC1 (stereo not drawn) [B365] , report its measured MIC.
> 150 µM

Entry CC(CC1CCCCC1)NCc1ccccc1OCCCO (stereo not drawn) [B251] has what MIC?
91 µM

Endpoint output: MIC of CC(/C=C/C1CCCCC1)NCc1ccccc1 (stereo not drawn) [B219] . Value?
> 300 µM

Entry CC(CC1CCCCC1)NCc1ccccc1OCC1CC2CCC1C2 (stereo not drawn) [B386] : reported MIC = ?
> 150 µM

Can you share its MIC? I mean this compound: c1ccc(CNCCC2CCNCC2)cc1 [B215, hydrochloride]
> 300 µM

Could you share which MIC value was measured for Cc1noc(C)c1COc1ccccc1CNC(C)CC1CCCCC1 (stereo not drawn) [B306] ?
> 150 µM

Need MIC, item Cc1ccccc1COc1ccccc1CNC(C)CC1CCCCC1 (stereo not drawn) [B384]
91 µM

Look up MIC for this compound: c1ccc(CNC2Cc3ccccc3C2)cc1 [B206, hydrochloride]
> 300 µM

# MIC lookup, item CC(CC1CCCCC1)NCc1ccccc1O (stereo not drawn) [B319]
33 µM

Need MIC, item c1cc(CNCCC2CCCCC2)c2cc[nH]c2c1 [B357]
150 µM

Find the recorded MIC belonging to CCOCCOc1ccccc1CNC(C)CC1CCCCC1 (stereo not drawn) [B313] and report it.
> 150 µM

For Oc1cccc(CNCCC2CCCCC2)c1 [B356] , what is its reported MIC?
> 150 µM

Given the entry NS(=O)(=O)Cc1ccccc1CNCCC1CCCCC1 [B380] , report its measured MIC.
33 µM

For the compound OCc1ccccc1CNCCC1CCCCC1 [B255] , what MIC is on record?
> 150 µM
